Cited source for all entries: PubChem BioAssay (NCI)

# Tested on: EKVX NSCLC
# method_summary: NCI tumour cell line growth inhibition, 48 h

compound: CCN(CC)Cc1c(/C=C\c2cc(OC)c(OC)c(OC)c2)ccc(OC)c1O
TGI: > 93.5 µM
--
compound: NCOC(=O)Cc1ccc(Br)cc1
TGI: > 100 µM
--
compound: CSc1ccc(/C=C2\N=C(c3ccccc3)N(c3nc4cc(C)c(C)cc4s3)C2=O)cc1
TGI: 85.9 µM
--
compound: O=C(Nc1ccc(/C=C/c2ccc(NC(=O)c3cc(S(=O)(=O)O)c4cccnc4c3O)cc2S(=O)(=O)O)c(S(=O)(=O)O)c1)c1cc(S(=O)(=O)O)c2cccnc2c1O
TGI: > 80.5 µM
--
compound: O=C1CCSC2=C1SCc1sccc12
TGI: > 100 µM
--
compound: NC(N)=N/N=C/c1ccc(-c2ccc(-c3cc(Cl)cc(Cl)c3)s2)cc1
TGI: 4.03 µM
--
compound: COc1ccc(C2C=C(c3ccc4c(c3)OCO4)Oc3c2c(=O)oc2ccccc32)cc1OC (centres undefined)
TGI: > 100 µM
--
compound: NCC1OC(OC2C(CO)OC(OC3C(O)C(N)CC(N)C3OC3OC(CO)C(O)CC3N)C2O)C(N)C(O)C1OC1OC(CO)C(O)C(O)C1O (centres undefined)
TGI: > 50 µg/mL
--
compound: Brc1ccc2c(c1)-c1nc3nc4c(cc3cc1CC2)CCc1ccc(Br)cc1-4
TGI: > 100 µM
